Attribution: paper PMC5923120

Test summary: in vitro
Protocol conditions: mouse, microsomes, % remaining at 45 min, without NADPH
Provide the recorded remaining at 0.75 h, 2 μM for the entries that follow.
Respond with the figure and its unit, in that order.

Query: remaining at 0.75 h, 2 μM; subject: `Cc1ccccc1C(=O)N/N=C/c1cc(Br)ccc1O`
86.3%

Query: remaining at 0.75 h, 2 μM; subject: `O=C(N/N=C/c1cc(Br)cc(Br)c1O)c1ccc(Br)cc1`
82.8%

* * *

Test summary: in vitro
Protocol conditions: human, microsomes, % remaining at 45 min, without NADPH
Readout: remaining at 0.75 h, 2 μM

Query: remaining at 0.75 h, 2 μM; subject: `Cc1ccccc1C(=O)N/N=C/c1cc(Br)ccc1O`
81.2%

Query: remaining at 0.75 h, 2 μM; subject: `O=C(N/N=C/c1cc(Br)cc(Br)c1O)c1ccc(Br)cc1`
81.9%

* * *

System: Candida albicans 3022
Test summary: Synergistic assay (FIC), CA Flu-R
Type: cell-based
Protocol conditions: Candida albicans, 3022; CA Flu-R
Provide the recorded MIC for the entries that follow.
# output: bare number, implied unit µg/mL

Query: MIC; subject: `CC[C@H](C)C[C@H](C)CCCCCCCCC(=O)N[C@H]1C[C@@H](O)[C@@H](NCCN)NC(=O)[C@@H]2[C@@H](O)CCN2C(=O)[C@H]([C@H](O)CCN)NC(=O)[C@H]([C@H](O)[C@@H](O)c2ccc(O)cc2)NC(=O)[C@@H]2C[C@@H](O)CN2C(=O)[C@H]([C@@H](C)O)NC1=O`
0.06

Query: MIC; subject: CCC(C)n1ncn(-c2ccc(N3CCN(c4ccc(OCC5COC(Cn6cncn6)(c6ccc(Cl)cc6Cl)O5)cc4)CC3)cc2)c1=O (stereo not shown)
2

* * *

Test summary: in vitro
Protocol conditions: mouse, microsomes, % remaining at 0 min, with NADPH
Readout: remaining at 0 h, 2 μM (%)
# output: bare number, implied unit %

Query: remaining at 0 h, 2 μM; subject: `O=C(N/N=C/c1cc(Br)cc(Br)c1O)c1ccc(Br)cc1`
100

Query: remaining at 0 h, 2 μM; subject: `Cc1ccccc1C(=O)N/N=C/c1cc(Br)ccc1O`
100

* * *

Provide the recorded recovery at 2 h, 5 μM for the entries that follow.
Test summary: Caco-2 permeability
Protocol conditions: human, Caco-2, pH 7.4, Recovery BL→AP
# output: bare number, implied unit %

Query: recovery at 2 h, 5 μM; subject: C[C@H]1O[C@@H](O[C@H]2[C@@H](O)C[C@H](O[C@H]3[C@@H](O)C[C@H](O[C@H]4CC[C@@]5(C)[C@H](CC[C@@H]6[C@@H]5C[C@@H](O)[C@]5(C)[C@@H](C7=CC(=O)OC7)CC[C@]65O)C4)O[C@@H]3C)O[C@@H]2C)C[C@H](O)[C@@H]1O [Digoxin, reference compound]
95.6

Query: recovery at 2 h, 5 μM; subject: `O=C(N/N=C/c1cc(Br)cc(Br)c1O)c1ccc(Br)cc1`
107

* * *

Test summary: Caco-2 permeability
Protocol conditions: human, Caco-2, pH 7.4
Readout: Papp A→B at 2 h, 5 μM (×10⁻⁶ cm/s)
# output: bare number, implied unit ×10⁻⁶ cm/s

Query: Papp A→B at 2 h, 5 μM; subject: O=C(N/N=C/c1cc(Br)cc(Br)c1O)c1ccc(Br)cc1 [D13]
0.13

Query: Papp A→B at 2 h, 5 μM; subject: Cc1ccccc1C(=O)N/N=C/c1cc(Br)ccc1O [BHBM]
14.3

Query: Papp A→B at 2 h, 5 μM; subject: C[C@H]1O[C@@H](O[C@H]2[C@@H](O)C[C@H](O[C@H]3[C@@H](O)C[C@H](O[C@H]4CC[C@@]5(C)[C@H](CC[C@@H]6[C@@H]5C[C@@H](O)[C@]5(C)[C@@H](C7=CC(=O)OC7)CC[C@]65O)C4)O[C@@H]3C)O[C@@H]2C)C[C@H](O)[C@@H]1O [Digoxin, reference compound]
0.61
